ASSAY_EXPLANATION: Lung tissue distribution study
Assay type: in vivo, rat
EXPERIMENTAL_CONDITIONS: male, Sprague-Dawley, rat, lung tissue, iv, 10 mg/kg
QUANTITY_KIND: half-life (min)
The reply should be a number in min, with the unit left off.

Look up half-life: O=C(/C=C/c1ccc(O)c2c1[C@H](C(=O)O[C@H](Cc1ccc(O)c(O)c1)C(=O)O)[C@@H](c1ccc(O)c(O)c1)O2)O[C@H](Cc1ccc(O)c(O)c1)C(=O)O [Sal B, Salvianolic acid B] 54

Just for reference, paper PMC9237582 is where these values come from.
